- tgt: KRAS G13D (Homo sapiens, UniProt P01116+P62937, G13D)
- Sequence (P01116 1-169 isoform P01116-2 G13D limits assumed, one chain of several): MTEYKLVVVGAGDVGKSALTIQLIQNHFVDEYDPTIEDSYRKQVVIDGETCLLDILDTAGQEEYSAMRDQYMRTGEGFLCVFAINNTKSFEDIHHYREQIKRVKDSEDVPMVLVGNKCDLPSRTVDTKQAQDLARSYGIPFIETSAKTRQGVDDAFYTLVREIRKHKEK
- test-name: Ras-Raf disruption / FRET / MOA assay (BRAF RBD)
- Assay type: biochemical
- protocol-conditions: KRAS G13D FRET data IC50, Ras-Raf disruption, with Cyclophilin A
pIC50: −log10 of the molar value.
Consider the following compounds; for each one, report its pIC50.

Solved entries:
{"compound": "CCn1c(-c2cccnc2[C@H](C)OC)c2c3cc(ccc31)-c1cc(O)cc(c1)C[C@H](NC(=O)[C@H](C(C)C)N(C)C(=O)CNC(=O)[C@H]1CN1)C(=O)N1CCC[C@H](N1)C(=O)OCC(C)(C)C2", "parameter-measured": "pIC50", "result": "7.00 to 8.00"}
{"compound": "CCn1c(-c2cccnc2[C@H](C)OC)c2c3cc(ccc31)-c1cc(O)cc(c1)C[C@H](NC(=O)[C@H](C(C)C)N(C)C(=O)CN(C)C(=O)[C@H]1CN1C1COC1)C(=O)N1CCC[C@H](N1)C(=O)OCC(C)(C)C2 (some centres unmarked)", "parameter-measured": "pIC50", "result": "6.00 to 7.00"}

// batch mode: one pIC50 value per listed entry
1. CCn1c(-c2cccnc2[C@H](C)OC)c2c3cc(ccc31)-c1cc(O)cc(c1)C[C@H](NC(=O)[C@H](C(C)C)N(C)C(=O)C13CC(CN1C(=O)[C@H]1CN1)C3)C(=O)N1CCC[C@H](N1)C(=O)OCC(C)(C)C2
2. CCn1c(-c2cccnc2[C@H](C)OC)c2c3cc(ccc31)-c1cc(O)cc(c1)C[C@H](NC(=O)[C@H](C(C)C)N(C)C(=O)CN(C)C(=O)[C@@H]1CN1C1COC1)C(=O)N1CCC[C@H](N1)C(=O)OCC(C)(C)C2 (some centres unmarked)
3. CCn1c(-c2cccnc2[C@H](C)OC)c2c3cc(ccc31)-c1cc(O)cc(c1)C[C@H](NC(=O)[C@H](C(C)C)N(C)C(=O)CN(C)C(=O)[C@@H]1CN1C(C)C)C(=O)N1CCC[C@H](N1)C(=O)OCC(C)(C)C2 (some centres unmarked)
4. CCn1c(-c2cccnc2[C@H](C)OC)c2c3cc(ccc31)-c1cc(O)cc(c1)C[C@H](NC(=O)[C@H](C1CCCC1)N(C)C(=O)CN(C)C(=O)[C@@H]1N[C@@H]1C1(C#N)CC1)C(=O)N1CCC[C@H](N1)C(=O)OCC(C)(C)C2 (single isomer, unassigned)
5. CCn1c(-c2cccnc2[C@H](C)OC)c2c3cc(ccc31)-c1cc(O)cc(c1)C[C@H](NC(=O)[C@H](C(C)C)N(C)C(=O)CN(C)C(=O)[C@H]1N[C@@H]1C(F)(F)F)C(=O)N1CCC[C@H](N1)C(=O)OCC(C)(C)C2
6. CCn1c(-c2cccnc2[C@H](C)OC)c2c3cc(ccc31)-c1cc(O)cc(c1)C[C@H](NC(=O)[C@H](C(C)C)N(C)C(=O)CN(C)C(=O)[C@@H]1CN1CC(=O)N(C)C)C(=O)N1CCC[C@H](N1)C(=O)OCC(C)(C)C2 (some centres unmarked)

6.00 to 7.00
7.00 to 8.00
7.00 to 8.00
6.00 to 7.00
7.00 to 8.00
6.00 to 7.00

* * *

- tgt: KRAS G12D (Homo sapiens, UniProt P01116+P62937, G12D)
- Sequence (P01116 1-169 isoform P01116-2 G12D limits assumed): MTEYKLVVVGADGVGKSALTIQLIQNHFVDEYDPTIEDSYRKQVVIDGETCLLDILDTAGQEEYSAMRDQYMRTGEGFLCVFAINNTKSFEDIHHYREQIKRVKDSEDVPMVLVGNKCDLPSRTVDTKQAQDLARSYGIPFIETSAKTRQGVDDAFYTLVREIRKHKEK
- Sequence (P62937 whole entry): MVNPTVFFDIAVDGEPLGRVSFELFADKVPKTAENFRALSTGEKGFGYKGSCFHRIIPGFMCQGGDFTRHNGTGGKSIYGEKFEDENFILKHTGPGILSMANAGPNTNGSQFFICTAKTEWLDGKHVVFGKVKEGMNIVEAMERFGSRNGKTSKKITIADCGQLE
- test-name: Disruption of BRAF RBD interaction with Ras (FRET / MOA assay, with Cyclophilin A)
- Format: biochemical
- protocol-conditions: read-out: KRAS G12D FRET data, IC50
- From the text: This protocol may also be executed substituting other Ras proteins or nucleotides. The purpose of this biochemical assay was to measure the ability of test compounds to facilitate ternary complex formation between a nucleotide-loaded K-Ras isoform and Cyclophilin A; the resulting ternary complex disrupts binding to a BRAF^RBD construct, inhibiting K-Ras signaling through a RAF effector. Data is reported as IC50 values. […]
parameter-measured: IC50

The cases that follow already have their IC50 on record.
{"molecule": "CCn1c(-c2cccnc2[C@H](C)OC)c2c3cc(ccc31)-c1csc(n1)C[C@H](NC(=O)[C@H](C(C)C)N(C)C(=O)N1C[C@@H]3CN(C)CC[C@@H]31)C(=O)N1CCC[C@H](N1)C(=O)OCC(C)(C)C2", "tgt": "KRAS G12D (Homo sapiens, UniProt P01116+P62937, G12D)", "result": "1000 to 10000 nM"}
{"molecule": "C=CS(=O)(=O)N1CC[C@H](C(=O)N(C)[C@H](C(=O)N[C@H]2Cc3cccc(c3)-c3ccc4c(c3)c(c(-c3cncnc3)n4CC)CC(C)(C)COC(=O)[C@@H]3CCCN(N3)C2=O)C(C)C)C1", "tgt": "KRAS G12D (Homo sapiens, UniProt P01116+P62937, G12D)", "result": "> 10000 nM"}
{"molecule": "C=CC(=O)N1CC[C@H](C(=O)N(C)[C@H](C(=O)N[C@H]2Cc3cc(OC(=O)CN)cc(c3)-c3ccc4c(c3)c(c(-c3ccccc3CCOC)n4CC)CC(C)(C)COC(=O)[C@@H]3CCCN(N3)C2=O)C(C)C)C1", "tgt": "KRAS G12D (Homo sapiens, UniProt P01116+P62937, G12D)", "result": "> 10000 nM"}
{"molecule": "CCn1c(-c2cccnc2[C@H](C)OC)c2c3cc(ccc31)-c1cc(O)cc(c1)C[C@H](NC(=O)[C@H](C(C)C)N(C)C(=O)O[C@H]1CCOC1)C(=O)N1CCC[C@H](N1)C(=O)OCC(C)(C)C2", "tgt": "KRAS G12D (Homo sapiens, UniProt P01116+P62937, G12D)", "result": "100 to 1000 nM"}
{"molecule": "CCn1c(-c2cccnc2[C@H](C)OC)c2c3cc(ccc31)-c1cc(O)cc(c1)C[C@H](NC(=O)[C@H](C(C)C)N(C)C(=O)C1Cc3cccnc3C1)C(=O)N1CCC[C@H](N1)C(=O)OCC(C)(C)C2 (stereo partly drawn)", "tgt": "KRAS G12D (Homo sapiens, UniProt P01116+P62937, G12D)", "result": "100 to 1000 nM"}

Below are some molecules; for each one, tell me its IC50.
1. CCn1c(-c2cccnc2[C@H](C)OC)c2c3cc(ccc31)-c1csc(n1)C[C@H](NC(=O)[C@H](C(C)C)N(C)C(=O)N1CCC13CCN(C)CC3)C(=O)N1CCC[C@H](N1)C(=O)OCC(C)(C)C2
2. CCn1c(-c2cccnc2[C@H](C)OC)c2c3cc(ccc31)-c1cc(O)cc(c1)C[C@H](NC(=O)[C@H](C(C)C)N(C)C(=O)C1CCC(C3CCCO3)O1)C(=O)N1CCC[C@H](N1)C(=O)OCC(C)(C)C2 (stereo partly drawn)
3. CCn1c(-c2cnccc2COC)c2c3cc(ccc31)-c1cc(O)cc(c1)C[C@H](NC(=O)[C@H](C(C)C)N(C)C(=O)N1CC(OC)C1)C(=O)N1CCC[C@H](N1)C(=O)OCC(C)(C)C2
4. CCn1c(-c2cccnc2[C@H](C)OC)c2c3cc(ccc31)-c1csc(n1)C[C@H](NC(=O)[C@H](C(C)C)N(C)C(=O)N(C)C1CC1)C(=O)N1CCC[C@H](N1)C(=O)OCC(C)(C)C2

["100 to 1000 nM", "100 to 1000 nM", "1000 to 10000 nM", "100 to 1000 nM"]

* * *

- tgt: NRAS Q61R (Homo sapiens, UniProt P01111+P62937, Q61R)
- Sequence (P01111 whole entry Q61R): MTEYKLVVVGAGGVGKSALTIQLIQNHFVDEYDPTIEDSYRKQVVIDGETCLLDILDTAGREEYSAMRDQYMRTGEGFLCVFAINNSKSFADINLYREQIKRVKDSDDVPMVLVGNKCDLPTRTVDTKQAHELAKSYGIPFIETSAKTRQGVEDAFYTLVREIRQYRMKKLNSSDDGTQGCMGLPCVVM
- Sequence (P62937 whole entry): as the sequence (P62937 whole entry) above
- test-name: Ras-Raf disruption / FRET / MOA assay (BRAF RBD)
- Type: biochemical
- protocol-conditions: NRAS Q61R; read-out: NRAS Q61R FRET data IC50
- From the text: Disruption of […] Ras-binding Domain (BRAF^RBD) Interaction with K-Ras by Compounds of the Invention (also Called a FRET Assay or an MOA Assay) Note—The following protocol describes a procedure for monitoring disruption of K-Ras G12C (GMP-PNP) binding to BRAF^RBD by a compound of the invention. This protocol may also be executed substituting other Ras proteins or nucleotides, such as K-Ras G12D and K-Ras G13D. […]
parameter-measured: IC50

{"compound": "CCn1c(-c2cccnc2[C@H](C)OC)c2c3cc(ccc31)-c1cc(O)cc(c1)C[C@H](NC(=O)[C@H](C(C)C)N(C)C(=O)[C@H]1C[C@H]3CC[C@@H](C1)N3C(=O)[C@H]1CN1)C(=O)N1CCC[C@H](N1)C(=O)OCC(C)(C)C2 (atropisomer, axis not shown)", "IC50": "100 to 1000 nM"}
{"compound": "CCn1c(-c2cccnc2[C@H](C)OC)c2c3cc(ccc31)-c1csc(n1)C[C@H](NC(=O)[C@H](C(C)C)N(C)C(=O)N1CCN(C(=O)[C@@H]3CN3)[C@H](C)C1)C(=O)N1CCC[C@H](N1)C(=O)OCC(C)(C)C2", "IC50": "100 to 1000 nM"}
{"compound": "CCOC(=O)[C@H]1O[C@@H]1C(=O)N1CC[C@H](C(=O)N(C)[C@H](C(=O)N[C@H]2Cc3cc(O)cc(c3)-c3ccc4c(c3)c(c(-c3cccnc3[C@H](C)OC)n4CC)CC(C)(C)COC(=O)[C@@H]3CCCN(N3)C2=O)C(C)C)C1", "IC50": "10 to 100 nM"}

With those in mind, consider the next compound.
Form field: reported IC50 of CCn1c(-c2cccnc2[C@H](C)OC)c2c3cc(ccc31)-c1cc(O)cc(c1)C[C@H](NC(=O)[C@H](C(C)C)N(C)C(=O)[C@H]1CCN(C(=O)C3CO3)C1)C(=O)N1CCC[C@H](N1)C(=O)OCC(C)(C)C2 (stereo partly shown)
100 to 1000 nM
